Assay: Cytotoxicity against RML infected mouse ScGT1 cells assessed as reduction in cell viability at 10 uM measured after 5 days by MTT assay relative to control
Assay type: toxicity, cell-based
Conditions: scgt1, 120 h, time 5 day
measure-name: Activity (%)
# number only, unit % dropped from output

In one line, give reported Activity of the entry CN1CCN(CC(=O)Nc2ccc3[nH]c4ccc(NC(=O)CN5CCN(C)CC5)cc4c3c2)CC1 .
47

Answer with the recorded Activity of O=C(CN1CCN(c2ccccc2)CC1)Nc1ccc2[nH]c3ccc(NC(=O)CN4CCN(c5ccccc5)CC4)cc3c2c1 only.
63

Annotate the molecule O=C(Cn1ccnc1)Nc1ccc2[nH]c3ccc(NC(=O)Cn4ccnc4)cc3c2c1 with its measured Activity.
77

Find the measured Activity of O=C(CN1CCCC1)Nc1ccc(Cc2ccc(NC(=O)CN3CCCC3)cc2)cc1 and report it.
50

Give Activity for the following molecule: O=C(CN1CCOCC1)Nc1ccc2[nH]c3ccc(NC(=O)CN4CCOCC4)cc3c2c1
84

Could you please provide reported Activity for CCN(CC)CC(=O)Nc1ccc2[nH]c3ccc(NC(=O)CN(CC)CC)cc3c2c1 ? Thanks!
103

Give Activity for CN(C)CC(=O)Nc1ccc2[nH]c3ccc(NC(=O)CN(C)C)cc3c2c1
95

Indicate the recorded Activity value for this molecule: O=C(CN1CCCC1)Nc1ccc2[nH]c3ccccc3c2c1
29

Return value of Activity for input O=C(CN1CCCCC1)Nc1ccc2[nH]c3ccc(NC(=O)CN4CCCCC4)cc3c2c1 , no commentary.
69

Read off the recorded Activity for CC(C)N(CC(=O)Nc1ccc2[nH]c3ccc(NC(=O)CN(C(C)C)C(C)C)cc3c2c1)C(C)C
61

For the molecule O=C(CN1CCCC1)Nc1ccc2[nH]c3ccc(NC(=O)CN4CCCC4)cc3c2c1 , give its measured Activity value.
71
